Origin of the recorded values: patent US20230081720A1

subject of test: T1, soluble human CD74 (human, UniProt P04233-2 73-232, limits assumed)
T1 construct: CD74' flowed over as analyte; also called human CD74 protein
T1 sequence (looked up): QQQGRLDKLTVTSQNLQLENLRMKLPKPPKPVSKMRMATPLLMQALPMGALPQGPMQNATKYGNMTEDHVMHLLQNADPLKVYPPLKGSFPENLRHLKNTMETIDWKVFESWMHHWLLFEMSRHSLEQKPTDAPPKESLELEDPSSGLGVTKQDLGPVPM
test description: SPR, Biacore 8K; IgG captured by anti-IgG Fc, soluble CD74 as analyte; 1:1 model, apparent kinetics
Parameter koff: see the listing below.
measure name: koff (s⁻¹)

>>> observed_result("milatuzumab (antibody, V domains shown, also called hLL1; WT IgG) VH: QVQLQQSGSELKKPGASVKVSCKASGYTFTNYGVNWIKQAPGQGLQWMGWINPNTGEPTFDDDFKGRFAFSLDTSVSTAYLQISSLKADDTAVYFCSRSRGKNEAWFAYWGQGTLVTVSS VL: DIQLTQSPLSLPVTLGQPASISCRSSQSLVHRNGNTYLHWFQQRPGQSPRLLIYTVSNRFSGVPDRFSGSGSGTDFTLKISRVEAEDVGVYFCSQSSHVPPTFGAGTRLEIK")
0.00051
>>> observed_result("VHmil x VK1aNQ (antibody, V domains shown, Tested as IgG; also called VHmil × VK1aNQ; hLL1 heavy chain with hzLL1-Vk1a (NQ) light chain) VH: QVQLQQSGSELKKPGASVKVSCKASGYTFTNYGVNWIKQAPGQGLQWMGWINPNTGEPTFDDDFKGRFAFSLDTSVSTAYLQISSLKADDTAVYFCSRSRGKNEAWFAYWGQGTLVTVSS VL: DIVMTQTPLSLPVTPGEPASISCRSSQSLVHRNQNTYLHWYLQKPGQSPQLLIYTVSNRFSGVPDRFSGSGSGTDFTLKISRVEAEDVGVYFCSQSSHVPPTFGQGTKLEIK")
0.00018
>>> observed_result("VHmil x VK1bNQ (antibody, V domains shown, Tested as IgG; also called VHmil × VK1bNQ; hLL1 heavy chain with hzLL1-Vk1b (NQ) light chain) VH: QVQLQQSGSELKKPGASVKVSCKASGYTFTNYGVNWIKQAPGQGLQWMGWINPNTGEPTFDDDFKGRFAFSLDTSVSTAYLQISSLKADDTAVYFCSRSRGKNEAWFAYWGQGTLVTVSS VL: DVVMTQSPLSLPVTLGQPASISCRSSQSLVHRNQNTYLHWYQQRPGQSPRLLIYTVSNRFSGVPDRFSGSGSGTDFTLKISRVEAEDVGVYFCSQSSHVPPTFGQGTKLEIK")
0.00016
